- TEST_SYSTEM: hMC1-R (human) (UniProt Q01726)
- Sequence (Q01726 whole entry): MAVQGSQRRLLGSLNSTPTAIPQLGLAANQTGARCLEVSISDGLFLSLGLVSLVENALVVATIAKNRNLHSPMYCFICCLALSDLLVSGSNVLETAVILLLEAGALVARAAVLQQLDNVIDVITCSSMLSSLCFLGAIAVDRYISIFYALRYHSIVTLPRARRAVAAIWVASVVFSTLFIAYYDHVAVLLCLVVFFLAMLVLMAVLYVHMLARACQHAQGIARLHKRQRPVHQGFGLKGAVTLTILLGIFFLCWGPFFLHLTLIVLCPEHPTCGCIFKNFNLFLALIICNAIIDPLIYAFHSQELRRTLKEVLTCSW
- ASSAY_NAME: ratio Ki hMC1-R / Ki hMC4-R, same assay
Bridge positions count the residues as written; N and C are the ends. Square brackets hold non-standard residues; d marks the D form. Ends that are not written are not given here. Bip = N[C@@H](Cc1ccc(-c2ccccc2)cc1)C(=O)O; d2Nal = N[C@H](Cc1ccc2ccccc2c1)C(=O)O; hArg = N=C(N)NCCCC[C@H](N)C(=O)O; Pen = CC(C)(S)[C@H](N)C(=O)O; Nle = CCCC[C@H](N)C(=O)O; GABA = NCCCC(=O)O; βAla = NCCC(=O)O
# label = 1.0 if Ki hMC1-R/MC4-R < 0.08 else 0.0

Sample answers from the record:
Ac-[Nle][Pen]H[dF]RW[GABA]C-NH2 (disulfide 2-8; SMILES CCCC[C@H](NC(C)=O)C(=O)N[C@@H]1C(=O)N[C@@H](Cc2c[nH]cn2)C(=O)N[C@H](Cc2ccccc2)C(=O)N[C@@H](CCCNC(=N)N)C(=O)N[C@@H](Cc2c[nH]c3ccccc23)C(=O)NCCCC(=O)N[C@H](C(N)=O)CSSC1(C)C) [Ac-Nle-c(Pen-His-D-Phe-Arg-Trp-Gaba-Cys)-NH2] ... 0.0
[dF]CH[d(Et)Tyr][hArg][Bip][βAla][dC]T-NH2 (disulfide 2-8) [D-Phe-c(Cys-His-D-(Et)Tyr-hArg-Bip-β-Ala-D-Cys)-Thr-NH2] ... 1.0
Ac-[Nle]CH[d2Nal]RW[GABA]C-NH2 (disulfide 2-8) [Ac-Nle-c(Cys-His-D-2-Nal-Arg-Trp-Gaba-Cys)-NH2] ... 0.0
[dF]CH[dF][hArg]W[βAla][dC]T-NH2 (disulfide 2-8; N-terminus assumed; SMILES C[C@@H](O)[C@H](NC(=O)[C@H]1CSSC[C@H](NC(=O)[C@H](N)Cc2ccccc2)C(=O)N[C@@H](Cc2c[nH]cn2)C(=O)N[C@H](Cc2ccccc2)C(=O)N[C@@H](CCCCNC(=N)N)C(=O)N[C@@H](Cc2c[nH]c3ccccc23)C(=O)NCCC(=O)N1)C(N)=O) [D-Phe-c(Cys-His-D-Phe-hArg-Trp-β-Ala-D-Cys)-Thr-NH2] ... 1.0

Next binder, please.
Query: Answer whether the binder [dF]CH[dF]RW[GABA][dC]T-NH2 (disulfide 2-8; N-terminus assumed; SMILES C[C@@H](O)[C@H](NC(=O)[C@H]1CSSC[C@H](NC(=O)[C@H](N)Cc2ccccc2)C(=O)N[C@@H](Cc2c[nH]cn2)C(=O)N[C@H](Cc2ccccc2)C(=O)N[C@@H](CCCNC(=N)N)C(=O)N[C@@H](Cc2c[nH]c3ccccc23)C(=O)NCCCC(=O)N1)C(N)=O) [D-Phe-c(Cys-His-D-Phe-Arg-Trp-Gaba-D-Cys)-Thr-NH2] has Ki hMC1-R/MC4-R strictly less than 0.08
Result: 0.0
